- MEASUREMENT_TARGET: T1, mouse Jagged2-Fc (extracellular domain of mouse Jagged2 fused to human Fc) (mouse, UniProt Q9QYE5 24-1082)
- T1 construct: extracellular domain; also called mJag2; not shown: human Fc
- T1 sequence (Q9QYE5 24-1082): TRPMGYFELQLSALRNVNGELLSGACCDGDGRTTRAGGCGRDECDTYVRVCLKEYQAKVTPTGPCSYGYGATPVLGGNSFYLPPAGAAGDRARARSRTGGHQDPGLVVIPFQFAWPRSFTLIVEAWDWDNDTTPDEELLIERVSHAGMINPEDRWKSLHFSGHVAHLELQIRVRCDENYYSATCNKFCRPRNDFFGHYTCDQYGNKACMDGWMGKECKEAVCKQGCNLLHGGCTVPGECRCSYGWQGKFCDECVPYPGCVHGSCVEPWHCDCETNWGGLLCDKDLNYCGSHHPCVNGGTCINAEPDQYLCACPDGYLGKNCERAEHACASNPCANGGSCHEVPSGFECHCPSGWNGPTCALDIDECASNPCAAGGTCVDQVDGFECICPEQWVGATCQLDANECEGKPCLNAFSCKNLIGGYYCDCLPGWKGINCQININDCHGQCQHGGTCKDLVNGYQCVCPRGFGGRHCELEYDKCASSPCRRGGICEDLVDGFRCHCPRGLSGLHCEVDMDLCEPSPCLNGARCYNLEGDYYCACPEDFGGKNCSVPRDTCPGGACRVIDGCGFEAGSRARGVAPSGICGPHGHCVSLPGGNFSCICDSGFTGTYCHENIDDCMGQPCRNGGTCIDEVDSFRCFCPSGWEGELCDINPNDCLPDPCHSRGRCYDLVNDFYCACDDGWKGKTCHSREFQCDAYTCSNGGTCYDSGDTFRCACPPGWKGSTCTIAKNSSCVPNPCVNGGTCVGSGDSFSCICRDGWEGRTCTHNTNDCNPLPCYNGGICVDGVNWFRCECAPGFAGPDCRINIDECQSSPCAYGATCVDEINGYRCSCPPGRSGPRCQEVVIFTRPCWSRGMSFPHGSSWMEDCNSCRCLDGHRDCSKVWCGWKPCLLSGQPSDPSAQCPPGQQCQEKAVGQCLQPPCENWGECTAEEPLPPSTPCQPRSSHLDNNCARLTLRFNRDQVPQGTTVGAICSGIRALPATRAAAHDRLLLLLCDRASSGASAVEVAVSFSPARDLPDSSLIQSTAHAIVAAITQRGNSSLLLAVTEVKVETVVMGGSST
- EXPERIMENTAL_PROTOCOL: SPR, Biacore 2000; Jagged protein amine-coupled to CM5 chip, antibody injected 100-1.0 nM, global fit
OBSERVED_PROPERTY: Kd (nM)
Expressed in nM, but write only the number.

Record excerpt, results attached:
I have this binder here, antibody 133R0201 (antibody, V domains shown) VH: QVQLVESGGGVVQPGRSLRLSCAASGFTFSSYAMHWVRQAPGKGLEWVAAIYPDSSNKYYADSVKGRFTISRDNSKNTLYLQMNSLRAEDTAVYYCARDKYDIPDAFDIWGQGTLVTVS VL: DIRMTQSPSSLSASVGDRVTITCRASQGISNDLAWYQQKPGKVPRLLIYATSTLQSGVPSRFSGSGSATDFTLTISSLQPEDVATYYCQQSYNAPITFGQGTRLEIK , and I need its recorded Kd.
3.2

Then what about the binder antibody 133R0203 (antibody, V domains shown) VH: QVQLVESGGGVVQPGRSLRLSCAASGFTFSSYAMHWVRQAPGKGLEWVAAISPEASNKYYADSVKGRFTISRDNSKNTLYLQMNSLRAEDTAVYYCARDKYDIPDAFDIWGQGTLVTVS VL: DIRMTQSPSSLSASVGDRVTITCRASQGISNDLAWYQQKPGKVPRLLIYATSTLQSGVPSRFSGSGSATDFTLTISSLQPEDVATYYCQQSYNAPITFGQGTRLEIK ?
3.8

Follow-up entry: 64R7 IgG2 antibody (antibody, V domains shown, Human IgG2 / kappa, expressed in CHO cells; also called antibody 64R7; ATCC PTA-10470) VH: QVQLVESGGGVVQPGRSLRLSCAASGFTFSSYAMHWVRQAPGKGLEWVAVISYDGSNKYYADSVKGRFTISRDNSKNTLYLQMNSLRAEDTAVYYCARDKYDIPDAFDIWGQGTLVTVSS VL: DIRMTQSPSSLSASVGDRVTITCRASQGISNDLAWYQQKPGKVPRLLIYATSTLQSGVPSRFSGSGSATDFTLTISSLQPEDVATYYCQQSYNAPITFGQGTRLEIKR
9.6

Let's switch to this binder now.
Find the recorded Kd belonging to antibody 133R0205 (antibody, V domains shown) VH: QVQLVESGGGVVQPGRSLRLSCAASGFTFSSYAMHWVRQAPGKGLEWVAAIYPASSNKYYADSVKGRFTISRDNSKNTLYLQMNSLRAEDTAVYYCARDKYDIPDAFDIWGQGTLVTVS VL: DIRMTQSPSSLSASVGDRVTITCRASQGISNDLAWYQQKPGKVPRLLIYATSTLQSGVPSRFSGSGSATDFTLTISSLQPEDVATYYCQQSYNAPITFGQGTRLEIK and report it.
4.8
